Parameter: inhibition at 10 µM. Scope: all listed entries.
# experimental_target: FLT3 (Homo sapiens, UniProt P36888)
# Sequence (P36888 27-993, species assumed): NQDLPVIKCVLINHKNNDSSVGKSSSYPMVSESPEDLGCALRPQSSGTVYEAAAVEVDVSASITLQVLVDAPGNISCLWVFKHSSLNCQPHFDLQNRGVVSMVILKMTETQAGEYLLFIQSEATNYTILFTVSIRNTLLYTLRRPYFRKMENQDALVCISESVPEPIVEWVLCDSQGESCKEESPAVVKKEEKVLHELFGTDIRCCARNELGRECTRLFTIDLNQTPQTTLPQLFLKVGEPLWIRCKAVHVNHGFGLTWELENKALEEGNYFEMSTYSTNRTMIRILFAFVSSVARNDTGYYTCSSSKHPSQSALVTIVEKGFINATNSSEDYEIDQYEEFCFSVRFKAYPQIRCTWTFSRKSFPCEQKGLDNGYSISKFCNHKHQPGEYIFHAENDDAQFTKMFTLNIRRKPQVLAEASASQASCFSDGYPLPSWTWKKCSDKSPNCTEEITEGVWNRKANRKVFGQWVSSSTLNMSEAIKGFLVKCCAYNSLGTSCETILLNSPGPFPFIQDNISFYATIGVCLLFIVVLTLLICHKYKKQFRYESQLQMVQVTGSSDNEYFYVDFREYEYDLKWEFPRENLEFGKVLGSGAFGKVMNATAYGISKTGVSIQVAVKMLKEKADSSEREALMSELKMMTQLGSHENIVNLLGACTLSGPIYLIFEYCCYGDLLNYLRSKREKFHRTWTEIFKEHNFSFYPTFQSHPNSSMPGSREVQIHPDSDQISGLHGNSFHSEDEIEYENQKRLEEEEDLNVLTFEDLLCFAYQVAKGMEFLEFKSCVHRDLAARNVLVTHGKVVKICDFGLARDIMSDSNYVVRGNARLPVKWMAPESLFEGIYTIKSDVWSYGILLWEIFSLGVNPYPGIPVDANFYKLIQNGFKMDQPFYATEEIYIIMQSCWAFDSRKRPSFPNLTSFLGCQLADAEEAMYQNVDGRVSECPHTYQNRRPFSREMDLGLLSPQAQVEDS
# procedure_summary: FRET-based coupled-enzyme protein kinase inhibition assay
# Format: biochemical
# settings: compound at 10 µM, 1% DMSO
Report the figure in % without appending any unit label.

Use the examples below as a reference point.
Exam item: Query the reported inhibition at 10 µM for FLT3 (Homo sapiens, UniProt P36888); item: Nc1ncnc2c1ncn2[C@@H]1O[C@H](COC(=O)N2CCC[C@H]2CO)[C@@H](O)[C@H]1O
Marked response: 8

Exam item: Requested read-out inhibition at 10 µM, target or system FLT3 (Homo sapiens, UniProt P36888), entry N#CCCN1CCN(C(=O)OC[C@H]2O[C@@H](n3cnc4c(N)ncnc43)[C@H](O)[C@@H]2O)CC1
Marked response: 7

Exam item: Field: inhibition at 10 µM (FLT3 (Homo sapiens, UniProt P36888)). Entry: CS(=O)(=O)N1CC2(CCN(C(=O)OC[C@H]3O[C@@H](n4cnc5c(N)ncnc54)[C@H](O)[C@@H]3O)CC2)c2ccccc21
Marked response: 13

Exam item: Record lookup: for FLT3 (Homo sapiens, UniProt P36888), what inhibition at 10 µM belongs to CN(C)CCNC(=O)OC[C@H]1O[C@@H](n2cnc3c(N)ncnc32)[C@H](O)[C@@H]1O ?
Marked response: 12

Exam item: Missing value: inhibition at 10 µM, FLT3 (Homo sapiens, UniProt P36888), entry Nc1ncnc2c1ncn2[C@@H]1O[C@H](COC(=O)NC[C@H](O)CO)[C@@H](O)[C@H]1O . Fill in?
Marked response: 12

Now for the molecule whose inhibition at 10 µM we want.
Exam item: Recall the recorded inhibition at 10 µM for Nc1ncnc2c1ncn2[C@@H]1O[C@H](COC(=O)NCCN2CCCC2=O)[C@@H](O)[C@H]1O with FLT3 (Homo sapiens, UniProt P36888) and state it.
Marked response: 9
